# Tested on: Plasmodium falciparum
# testDetails: Inhibition of Plasmodium falciparum falcipain-2 using Z-Leu-Arg-AMC as substrate at 10 uM after 30 mins by spectrophotometric assay
property: inhibition

Example entries and their recorded answers appear below.
smilesStructure | value
O=C(Cc1ccc(S(=O)(=O)NCCc2ccccc2)cc1)Nc1ccc2c(c1)OCCO2 | < 5%
O=C(Nc1ccc2c(c1)OCCO2)c1ccc(S(=O)(=O)NCCc2ccccc2)cc1 | < 5%

Moving on to the next molecule.
Need inhibition of O=C(CCc1ccc(S(=O)(=O)NCc2ccccc2)cc1)Nc1ccc2c(c1)OCCO2 , thanks.
< 5%
